- measured-target: T1, human TfR ectodomain fused to a mouse IgG1 Fc fragment (human, UniProt P02786 89-760)
- T1 construct: extracellular domain; ectodomain fused to the N-terminal end of the Fc, made in-house; not shown: mouse IgG1 Fc fragment
- T1 sequence (P02786 89-760): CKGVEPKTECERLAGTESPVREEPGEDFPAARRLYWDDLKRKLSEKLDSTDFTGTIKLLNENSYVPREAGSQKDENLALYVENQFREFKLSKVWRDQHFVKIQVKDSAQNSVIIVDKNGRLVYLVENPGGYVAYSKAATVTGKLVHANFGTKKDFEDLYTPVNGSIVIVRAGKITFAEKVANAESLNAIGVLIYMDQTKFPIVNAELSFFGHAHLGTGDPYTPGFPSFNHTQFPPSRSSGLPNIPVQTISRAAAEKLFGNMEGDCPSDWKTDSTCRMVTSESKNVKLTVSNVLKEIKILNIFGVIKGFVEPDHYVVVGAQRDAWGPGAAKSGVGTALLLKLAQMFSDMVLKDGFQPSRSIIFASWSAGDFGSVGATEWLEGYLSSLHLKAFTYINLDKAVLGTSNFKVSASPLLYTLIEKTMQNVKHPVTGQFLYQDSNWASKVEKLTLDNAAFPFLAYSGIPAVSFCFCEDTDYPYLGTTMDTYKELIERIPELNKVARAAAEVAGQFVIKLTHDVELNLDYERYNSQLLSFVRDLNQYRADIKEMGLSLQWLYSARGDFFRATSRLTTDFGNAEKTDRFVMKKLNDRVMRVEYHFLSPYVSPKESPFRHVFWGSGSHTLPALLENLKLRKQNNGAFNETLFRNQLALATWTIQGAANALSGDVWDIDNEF
- test-method-notes: SPR, kinetic
The label 1.0 is reserved for koff strictly under 0.0005 s⁻¹; 0.0 covers values equal to or above it.

Task: Does the reported koff of B8^V33 (VHH) VHH: EVQLVESGGGVVQPGGSLRLSCAASGEIFSINFMRWYRQAPGKQREWVAGFTRDGSTNYPDSAKGRFTISRDNAKNTVYLQIDSLKPEDTAVYYCYMLKTWGQGTQVTVSS stay below 0.0005 s⁻¹?
Result: 0.0

Task: Does the reported koff of VHH C (B6) (VHH) VHH: EVQLVESGGGLVQPGGSLRLSCTASGGPIEQYPMGWFRRAPGKERELVASISRSGDGTYYAISSVKGRFTISRDNAENTVFLQMNSLKPDDTAVYYCGAGINPTKIWGQGTQVTVSS stay below 0.0005 s⁻¹?
Result: 0.0

Task: Does the reported koff of VHH A11 (C5^V11) (VHH) VHH: EVQLVESGGGVVQPGGSLKLSCVASGTDFSINYIRWYRQAPGKQREFVAGFTATGNTNYADSMKGRFTISRDNTKNAVYLQIDSLKPEDTAVYYCYMLDKWGQGTQVTVSS stay below 0.0005 s⁻¹?
Result: 1.0

Task: Does the reported koff of VHH B (B8) (VHH) VHH: EVQLVESGGGVVQPGGSLRLSCAASGEIFSINFMRWYRQAPGKQREWVAGFTRDGSTNYPDSAKGRFTISRDNAKNTVYLQIDSLKPEDTAVYYCYMLDTWGQGTQVTVSS stay below 0.0005 s⁻¹?
Result: 1.0

Task: Does the reported koff of F2a (VHH) VHH: EVQLVESGGGLVQPGESLRLSCTASESISIYGVGWYRQAPGEQRVLVAHLKRNGLTEYKDSVKGRFTISRDNARNTIYLEMKNLKPEDTAIYYCNTALGSVLPWGRGTQVTVSS stay below 0.0005 s⁻¹?
Result: 0.0

Task: Does the reported koff of B8^V39 (VHH) VHH: EVQLVESGGGVVQPGGSLRLSCAASGEIFKINFMRWYRQAPGKQREWVAGFTRDGSTNYPDSAKGRFTISRDNAKNTVYLQIDSLKPEDTAVYYCYMLDTWGQGTQVTVSS stay below 0.0005 s⁻¹?
Result: 0.0

Task: Does the reported koff of C5^h18 (VHH) VHH: EVQLVESGGGVVQPGGSLKLSCVASGTDFSINFIRWYRQAPGKGLEFVAGFTATGNTNYADSVKGRFTISRDNAKNTLYLQMNSLRPEDTAVYYCYMLDKWGQGTQVTVSS stay below 0.0005 s⁻¹?
Result: 0.0
